Assay Notes: NCI Yeast Anticancer Drug Screen. Data for the cln2 rad14 strain (AID 165);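 further: 0% = growth equal to vehicle treated cultures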
Run Conditions: S. cerevisiae cln2 rad14 strain, at 50.0 µM, stronger effect = higher value
About 79,000 compounds went through this panel and 15% of them were active in at least one assay; those are over-represented in the sample as a whole.
Observable: growth inhibition (%)
Give just the number in %; leave the unit off.

Ask: # return recorded growth inhibition for entry CC(C)(C)OC(=O)Cc1ccc([N+](=O)[O-])cc1
Result: -5.85

Ask: # return recorded growth inhibition for entry Cc1cc2c(cc1C)NC1=C(N2)OC(c2ccc(Cl)cc2)C1=O (stereo unspecified)
Result: 2

Ask: # return recorded growth inhibition for entry C[Si](C)(COC(N)=O)Cc1ccccc1
Result: -1.2

Ask: # return recorded growth inhibition for entry O=C(NC(=O)c1c(Cl)nc2sccn12)Nc1ccc(Cl)cc1
Result: 0.85

Ask: # return recorded growth inhibition for entry CCc1ccc(CC)c(OC)c1
Result: -27.2

Ask: # return recorded growth inhibition for entry CCn1c2ccccc2c2nnc(NCCCO)nc21
Result: -1.25

Ask: # return recorded growth inhibition for entry CCCC(O)C(C)(C)C (stereo unspecified)
Result: -11.2

Ask: # return recorded growth inhibition for entry Nc1ncnc2c1ncn2C1CC(O)C(COP(=O)(O)O)O1 (stereo unspecified)
Result: -23.4

Ask: # return recorded growth inhibition for entry COc1cccc(C(=O)NNC(=O)c2cccc(OC)c2)c1
Result: 9.55

Ask: # return recorded growth inhibition for entry CCN(CC)C(=O)COc1ccc(Cl)cc1C(C)C
Result: -2.45

Ask: # return recorded growth inhibition for entry N#CCCN(c1ccc(C=Nc2cccc([N+](=O)[O-])c2)cc1)S(=O)(=O)c1ccccc1
Result: 8.1

Ask: # return recorded growth inhibition for entry CCCOC(=O)OCCC
Result: 2.9

Ask: # return recorded growth inhibition for entry COc1cc2c(cc1OC)C1C(=O)c3c(O)cc4c(c3OC1CO2)C=CC(C)(C)O4 (stereo unspecified)
Result: 15.3

Ask: # return recorded growth inhibition for entry OC1CNC(=S)NC1
Result: -22.2

Ask: # return recorded growth inhibition for entry COc1ccc(C(=O)C[C@H]2CCC[C@@H](CC(=O)c3ccc(OC)cc3)N2C)cc1
Result: 12

Ask: # return recorded growth inhibition for entry [Cu+2].[NH-]C(CC(=O)O)C(=O)O.[NH-]C(CC(=O)O)C(=O)O (stereo unspecified)
Result: 64.4

Ask: # return recorded growth inhibition for entry C=C(C)C1CC/C(C)=C/CC[C@]2(C)O[C@H]2CC/C(COC(C)=O)=C\[C@@H]1O (stereo partly specified)
Result: 3.65

Ask: # return recorded growth inhibition for entry CCc1nc(N)nc(N)c1-c1ccc(OC)c([N+](=O)[O-])c1
Result: 24.9

Ask: # return recorded growth inhibition for entry CC(O)CC(C)(C)O (stereo unspecified)
Result: 9.9

Ask: # return recorded growth inhibition for entry O=S(=O)(c1ccccc1)c1ccc(CBr)cc1
Result: 17.5

Ask: # return recorded growth inhibition for entry O=S(=O)(O)c1ccccc1/C=N\N=C\c1ccccc1S(=O)(=O)O
Result: 17.4

Ask: # return recorded growth inhibition for entry O=c1nc2n(cc1/C=C\Br)C1CC(O)C(CO2)O1 (stereo unspecified)
Result: 13.3

Ask: # return recorded growth inhibition for entry CN(C)CCSC(CO)c1ccccc1 (stereo unspecified)
Result: 9.2

Ask: # return recorded growth inhibition for entry CSc1nc(C=O)nc(SC)n1
Result: -11.3

Ask: # return recorded growth inhibition for entry CC(=O)/C(C=Nc1c(C)n(C)n(C)c1=O)=C(/O)c1ccccc1
Result: 7.55

Ask: # return recorded growth inhibition for entry c1cc(CSSCc2ccncc2)ccn1
Result: -13.2

Ask: # return recorded growth inhibition for entry O=c1[nH]nc(NC2Nc3ccccc3N2)c2ccccc12
Result: -19.2

Ask: # return recorded growth inhibition for entry CCN(CC)C(=O)c1cccc(C(=O)N(CC)CC)n1
Result: 39.4

Ask: # return recorded growth inhibition for entry C=C(C)CCCC(C)C(O)C=O (stereo unspecified)
Result: 1.75

Ask: # return recorded growth inhibition for entry Nc1ccc2nc3c4ccccc4c(O)n3nc2c1
Result: -47.9

Ask: # return recorded growth inhibition for entry CCC(C)OC(=O)CC(c1ccccc1)N1CCCCC1 (stereo unspecified)
Result: -26.4

Ask: # return recorded growth inhibition for entry CN(CC(C)(C)C=O)C(=O)c1ccccc1
Result: -8.3

Ask: # return recorded growth inhibition for entry O=S(=O)(Nc1cccc(C(F)(F)F)c1)c1ccc(F)cc1
Result: 12.9

Ask: # return recorded growth inhibition for entry CC1(c2ccccc2)CCC(=O)NC1 (stereo unspecified)
Result: 8.45

Ask: # return recorded growth inhibition for entry CCCC(=O)NC(NC1CCCCC1)(C(=O)OCC)C(F)(F)F (stereo unspecified)
Result: 18.4

Ask: # return recorded growth inhibition for entry Nc1ccnc(Cl)n1
Result: 0.4

Ask: # return recorded growth inhibition for entry CC1CC(=O)NC(=O)C1
Result: -13

Ask: # return recorded growth inhibition for entry CN(CC(=O)O)Cc1oc(CO)cc(=O)c1O
Result: -37.5

Ask: # return recorded growth inhibition for entry CCN(CC)C(=O)c1ccccc1
Result: -2.65

Ask: # return recorded growth inhibition for entry COc1ccc(/C=C/C(=O)c2sc(NC(=S)NC(=O)c3ccc(Cl)cc3)nc2C)cc1OC
Result: 9.8

Ask: # return recorded growth inhibition for entry Nc1nc(CCC(=O)Nc2cccc(C(F)(F)F)c2)cc(-c2ccc3ccccc3c2)n1
Result: -10.2

Ask: # return recorded growth inhibition for entry Cc1ccc(S(=O)(=O)N/N=C2/C(=N/NS(=O)(=O)c3ccc(C)cc3)C3CCC2C3)cc1
Result: -29.2

Ask: # return recorded growth inhibition for entry O=c1[nH]cnc2c1ncn2CCCCO
Result: 2.7

Ask: # return recorded growth inhibition for entry Cc1ccc(NC(=O)Nc2cccc(C(F)(F)F)c2)cc1NC(=O)Nc1cccc(C(F)(F)F)c1
Result: 23.7

Ask: # return recorded growth inhibition for entry CCN(c1ccccc1)c1ncnc2nc[nH]c12
Result: -28.9

Ask: # return recorded growth inhibition for entry CCS(=O)(=O)c1ccc(NC(=O)OC2CCCCCC2)cc1
Result: -1.25

Ask: # return recorded growth inhibition for entry N#C/C(=C\c1ccccc1)c1cccc(Br)c1
Result: -22.9

Ask: # return recorded growth inhibition for entry NC(=Nc1ccc([N+](=O)[O-])cc1)c1ccccc1
Result: -11.9

Ask: # return recorded growth inhibition for entry COC(=O)CCCCCCCCC(C)C(C)=O (stereo unspecified)
Result: -12.5

Ask: # return recorded growth inhibition for entry CC(=O)OC1CC2C(C)(CCC3C2(C)CCC2(C)C4CC(C)(C)CCC4(C)CCC32C)C1C (stereo unspecified)
Result: 2.75

Ask: # return recorded growth inhibition for entry CCc1nnc2sc3c(Cl)c4nn5c(CC)nnc5sc4c(Cl)c3nn12
Result: 24.2
